The measurements presented in this section are drawn from patent US20230398125A1.

- Study target: Human NTCP (Homo sapiens, UniProt Q14973)
- Construct: expressed in transfected cells; peptide purchased from Pharmaron
- Sequence (Q14973 whole entry): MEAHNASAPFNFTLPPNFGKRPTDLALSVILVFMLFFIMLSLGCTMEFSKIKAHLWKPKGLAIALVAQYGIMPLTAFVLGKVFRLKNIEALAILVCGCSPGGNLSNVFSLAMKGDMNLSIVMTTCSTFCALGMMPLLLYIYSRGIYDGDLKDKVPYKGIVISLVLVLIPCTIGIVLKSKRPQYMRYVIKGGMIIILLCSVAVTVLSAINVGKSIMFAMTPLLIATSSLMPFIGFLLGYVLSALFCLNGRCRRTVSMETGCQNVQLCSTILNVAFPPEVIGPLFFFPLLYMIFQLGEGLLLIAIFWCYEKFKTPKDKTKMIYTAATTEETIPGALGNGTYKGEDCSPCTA
- Assay text: [3H]preS1 peptide binding to NTCP-HEK293 cells
Reported property: pIC50
Answers are plain numbers, as −log10 of the molar value.

Find pIC50 (Human NTCP (Homo sapiens, UniProt Q14973)) for the entry CCCCC1CN(c2ccccc2)c2cc(SC)c(O/C=C(\F)C(=O)O)cc2S(=O)(=O)N1C (stereo not shown) [Compound 1]
6.83

---

- Assay text: Pharmacokinetic phase: plasma exposure after oral dosing in non-infected PXB mice
- Format: in vivo
- Experimental context: PXB, mouse, plasma, po, 10 mg/kg, non-infected PXB mice, 10 mg/kg p.o., 2 h, animal 101; read-out: Plasma conc.
Reported property: concentration at 2 h (ng/mL)
Give bare numbers, in ng/mL.

Item CCCCC1CN(c2ccccc2)c2cc(SC)c(O/C=C(\F)C(=O)O)cc2S(=O)(=O)N1C (stereo not shown) has what recorded concentration at 2 h?
194

---

- Assay text: Pharmacokinetic phase: plasma exposure after oral dosing in non-infected PXB mice
- Assay type: in vivo
- Experimental context: PXB, mouse, plasma, po, 10 mg/kg, non-infected PXB mice, 10 mg/kg p.o., 2 h, mean of 3 animals; read-out: Plasma conc. Mean ± SD
Reported property: concentration at 2 h (ng/mL)
Answers are plain numbers, in ng/mL.

Item CCCCC1CN(c2ccccc2)c2cc(SC)c(O/C=C(\F)C(=O)O)cc2S(=O)(=O)N1C (stereo not shown) has what recorded concentration at 2 h?
231

---

- Assay text: Pharmacokinetic phase: plasma exposure after oral dosing in non-infected PXB mice
- Type: in vivo
- Experimental context: PXB, mouse, plasma, po, 10 mg/kg, non-infected PXB mice, 10 mg/kg p.o., 1 h, mean of 3 animals; read-out: Plasma conc. Mean ± SD
Reported property: concentration at 1 h

Item CCCCC1CN(c2ccccc2)c2cc(SC)c(O/C=C(\F)C(=O)O)cc2S(=O)(=O)N1C (stereo not shown) [Compound 1] has what recorded concentration at 1 h?
1020 ng/mL

---

- Study target: ASBT (Homo sapiens, UniProt Q12908)
- Sequence (Q12908 1-348): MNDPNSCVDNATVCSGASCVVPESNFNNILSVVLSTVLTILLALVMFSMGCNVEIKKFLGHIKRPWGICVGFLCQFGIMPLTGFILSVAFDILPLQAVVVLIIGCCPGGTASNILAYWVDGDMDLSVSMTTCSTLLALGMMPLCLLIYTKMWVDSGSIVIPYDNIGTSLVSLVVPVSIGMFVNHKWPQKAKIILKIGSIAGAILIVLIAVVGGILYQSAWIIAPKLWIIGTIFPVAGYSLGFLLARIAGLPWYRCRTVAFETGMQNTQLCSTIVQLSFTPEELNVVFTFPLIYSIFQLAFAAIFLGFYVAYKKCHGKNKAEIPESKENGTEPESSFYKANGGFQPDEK
- Assay text: [3H]taurocholate uptake, apparent Ki for ASBT
- Experimental context: read-out: inhibitory constant (Ki) for ASBT
Reported property: pKi
Numbers only, as −log10 of the molar value.

Item CCCCC1CN(c2ccccc2)c2cc(SC)c(O/C=C(\F)C(=O)O)cc2S(=O)(=O)N1C (stereo not shown) has what recorded pKi?
5.62

---

- Study target: Mouse NTCP (Mus musculus)
- Construct: kept under geneticin selection
- Sequence (O08705 whole entry): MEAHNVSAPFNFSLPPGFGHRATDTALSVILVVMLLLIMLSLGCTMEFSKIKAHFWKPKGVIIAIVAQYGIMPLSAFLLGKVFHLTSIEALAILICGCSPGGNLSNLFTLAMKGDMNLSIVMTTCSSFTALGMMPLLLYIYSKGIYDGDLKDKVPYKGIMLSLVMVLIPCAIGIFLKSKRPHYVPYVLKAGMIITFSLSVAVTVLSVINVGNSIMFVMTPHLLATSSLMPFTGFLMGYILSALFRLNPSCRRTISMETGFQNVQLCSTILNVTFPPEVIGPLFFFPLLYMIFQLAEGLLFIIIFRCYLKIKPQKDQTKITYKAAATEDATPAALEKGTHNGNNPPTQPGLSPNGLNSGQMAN
- Assay text: 3H-taurocholic acid uptake in mouse NTCP-overexpressing cells
- Experimental context: 3H-taurocholic acid transport
Reported property: pIC50
Give bare numbers, as −log10 of the molar value.

Item CCCCC1CN(c2ccccc2)c2cc(SC)c(O/C=C(\F)C(=O)O)cc2S(=O)(=O)N1C (stereo not shown) has what recorded pIC50?
8.74
